# ASSAY DETAILS: Oral bioavailability in male Han Wistar rat
# Assay type: ADME, organism-based
# MEASUREMENT CONDITIONS: in vivo
QUANTITY: bioavailability (%)

INSERT INTO assay_data (compound_structure_string, quantity, result_value) VALUES
  ('CCCC[C@@H](/C=N/NC(=O)N1CCOCC1)NC(=O)OC(C)(C)C', 'bioavailability', 3.9),
  ('CCCC[C@@H](/C=N/NS(=O)(=O)N(C)C)NC(=O)OC(C)(C)C', 'bioavailability', 26),
  ('CCCC[C@@H](/C=N/NC(=O)N1CCCC1)NC(=O)OC(C)(C)C', 'bioavailability', 0),
  ('CCCC[C@@H](/C=N/NC(=O)N1CCc2ccccc21)NC(=O)OC(C)(C)C', 'bioavailability', 0),
  ('CCCC[C@@H](/C=N/NC(=O)N1CCOCC1)NC(=O)O[C@@H](C)Cc1ccccc1', 'bioavailability', 0);

====

# TARGET ENTITY: UniProt O35186
# Sequence (O35186 whole entry): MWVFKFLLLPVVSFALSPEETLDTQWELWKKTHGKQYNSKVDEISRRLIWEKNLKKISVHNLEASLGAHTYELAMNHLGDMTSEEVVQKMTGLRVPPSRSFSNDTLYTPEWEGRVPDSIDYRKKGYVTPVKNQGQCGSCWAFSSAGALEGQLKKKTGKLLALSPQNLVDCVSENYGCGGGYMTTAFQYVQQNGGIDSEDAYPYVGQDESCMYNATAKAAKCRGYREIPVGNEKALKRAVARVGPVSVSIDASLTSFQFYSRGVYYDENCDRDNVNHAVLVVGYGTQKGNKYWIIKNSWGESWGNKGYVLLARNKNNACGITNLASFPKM
QUANTITY: IC50 (nM)

INSERT INTO measurements (compound_structure_string, target_entity, quantity, result_value) VALUES
  ('CCCC[C@@H](/C=N/NC(=O)N1CCOCC1)NC(=O)O[C@@H](C)Cc1ccccc1', 'UniProt O35186', 'IC50', 130);

====

# TARGET ENTITY: Cathepsin K (Homo sapiens, UniProt P43235)
# Sequence (P43235 whole entry): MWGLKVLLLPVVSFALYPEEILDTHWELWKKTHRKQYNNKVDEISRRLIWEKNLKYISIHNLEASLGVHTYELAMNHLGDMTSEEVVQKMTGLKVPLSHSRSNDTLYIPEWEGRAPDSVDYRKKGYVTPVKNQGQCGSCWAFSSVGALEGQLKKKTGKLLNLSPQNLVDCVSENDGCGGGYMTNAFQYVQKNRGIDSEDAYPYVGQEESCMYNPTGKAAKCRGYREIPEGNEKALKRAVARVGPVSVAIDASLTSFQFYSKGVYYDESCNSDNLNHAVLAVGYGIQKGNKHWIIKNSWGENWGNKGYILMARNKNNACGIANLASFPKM
# ASSAY DETAILS: Inhibition of recombinant human cathepsin K in a fluorescence assay
Criterion: IC50 strictly less than 200 nM. Met: True. Not met: False.

INSERT INTO measurements (compound_structure_string, cat) VALUES
  ('CCCC[C@@H](/C=N/NC(=O)C(F)(F)F)NC(=O)OC(C)(C)C', 'True'),
  ('CCCC[C@@H](/C=N/NC(=O)NCCC(=O)OCC)NC(=O)OC(C)(C)C', 'False'),
  ('CCCC[C@@H](/C=N/NC(=O)N(C)CCc1ccccc1)NC(=O)OC(C)(C)C', 'True'),
  ('CCCC[C@@H](/C=N/NC(=O)NC(C)(C)C)NC(=O)OC(C)(C)C', 'True'),
  ('CCCC[C@@H](/C=N/NC(=O)N1CCCC1)NC(=O)OC(C)(C)C', 'True'),
  ('CC(C)C[C@@H]([13CH]=O)NC(=O)OC(C)(C)C', 'True');

====

# TARGET ENTITY: Cathepsin K (Homo sapiens)
# ASSAY DETAILS: Inhibition of recombinant human cathepsin K in a fluorescence assay
QUANTITY: IC50 (nM)

INSERT INTO results (compound_structure_string, target_entity, quantity, result_value) VALUES
  ('CCCC[C@@H](/C=N/NC(=O)N1CCOCC1)NC(=O)OC(C)(C)C', 'Cathepsin K (Homo sapiens)', 'IC50', 35),
  ('CCCC[C@@H](/C=N/N(C)C(=O)NCCc1ccccc1)NC(=O)OC(C)(C)C', 'Cathepsin K (Homo sapiens)', 'IC50', 11000),
  ('CCCC[C@@H](/C=N/NC(=O)NCC(=O)OCC)NC(=O)OC(C)(C)C', 'Cathepsin K (Homo sapiens)', 'IC50', 520),
  ('CCCC[C@@H](/C=N/NC(=O)NCC)NC(=O)OC(C)(C)C', 'Cathepsin K (Homo sapiens)', 'IC50', 490),
  ('CCCC[C@@H](/C=N/NC(=O)NC(=O)OC)NC(=O)OC(C)(C)C', 'Cathepsin K (Homo sapiens)', 'IC50', 180),
  ('CCCC[C@@H](/C=N/NC(=O)N1CCc2ccccc2C1)NC(=O)OC(C)(C)C', 'Cathepsin K (Homo sapiens)', 'IC50', 93),
  ('CCCC[C@@H](/C=N/NC(=O)N1CCOCC1)NC(=O)O[C@@H](C)Cc1ccccc1', 'Cathepsin K (Homo sapiens)', 'IC50', 0.94),
  ('CCCC[C@@H](/C=N/NC(=O)OC(C)C)NC(=O)OC(C)(C)C', 'Cathepsin K (Homo sapiens)', 'IC50', 130),
  ('CCCC[C@@H](/C=N/NC(=O)Nc1ccccc1)NC(=O)OC(C)(C)C', 'Cathepsin K (Homo sapiens)', 'IC50', 400),
  ('CCCC[C@@H](/C=N/NC(=O)N1CCc2ccccc21)NC(=O)OC(C)(C)C', 'Cathepsin K (Homo sapiens)', 'IC50', 48),
  ('CCCC[C@@H](/C=N/NC(=O)N1CCCc2ccccc21)NC(=O)OC(C)(C)C', 'Cathepsin K (Homo sapiens)', 'IC50', 59),
  ('CCCC[C@@H](/C=N/NC(=O)N1CCOCC1)NC(=O)O[C@H](Cc1ccccc1)C(C)C', 'Cathepsin K (Homo sapiens)', 'IC50', 0.33),
  ('CCCC[C@@H](/C=N/NC(=O)NCc1ccccc1)NC(=O)OC(C)(C)C', 'Cathepsin K (Homo sapiens)', 'IC50', 410),
  ('CCCC[C@@H](/C=N/NC(=O)SC(C)C)NC(=O)OC(C)(C)C', 'Cathepsin K (Homo sapiens)', 'IC50', 830),
  ('CCCC[C@@H](/C=N/NC(=O)N1CCCCC1)NC(=O)OC(C)(C)C', 'Cathepsin K (Homo sapiens)', 'IC50', 58),
  ('CCCC[C@@H](/C=N/OC(=O)N1CCOCC1)NC(=O)OC(C)(C)C', 'Cathepsin K (Homo sapiens)', 'IC50', 1100),
  ('CCCC[C@@H](/C=N/NC(=O)NC)NC(=O)OC(C)(C)C', 'Cathepsin K (Homo sapiens)', 'IC50', 280),
  ('CCCC[C@@H](/C=N/NC(=O)NC(C)C)NC(=O)OC(C)(C)C', 'Cathepsin K (Homo sapiens)', 'IC50', 170),
  ('CCCC[C@@H](/C=N/N[N+]1=CSCC1)NC(=O)OC(C)(C)C', 'Cathepsin K (Homo sapiens)', 'IC50', 470),
  ('CCCC[C@@H](/C=N/N(C)C(=O)N(C)CCc1ccccc1)NC(=O)OC(C)(C)C', 'Cathepsin K (Homo sapiens)', 'IC50', 520),
  ('CCCC[C@@H](/C=N/NC(=O)N(CC)CC)NC(=O)OC(C)(C)C', 'Cathepsin K (Homo sapiens)', 'IC50', 40);

Where do the numbers come from? From ChEMBL document CHEMBL1138109.
